Data origin, for the record: patent US7067261B2

# measured.target: α7 (Homo sapiens)
# Sequence (P36544 23-502): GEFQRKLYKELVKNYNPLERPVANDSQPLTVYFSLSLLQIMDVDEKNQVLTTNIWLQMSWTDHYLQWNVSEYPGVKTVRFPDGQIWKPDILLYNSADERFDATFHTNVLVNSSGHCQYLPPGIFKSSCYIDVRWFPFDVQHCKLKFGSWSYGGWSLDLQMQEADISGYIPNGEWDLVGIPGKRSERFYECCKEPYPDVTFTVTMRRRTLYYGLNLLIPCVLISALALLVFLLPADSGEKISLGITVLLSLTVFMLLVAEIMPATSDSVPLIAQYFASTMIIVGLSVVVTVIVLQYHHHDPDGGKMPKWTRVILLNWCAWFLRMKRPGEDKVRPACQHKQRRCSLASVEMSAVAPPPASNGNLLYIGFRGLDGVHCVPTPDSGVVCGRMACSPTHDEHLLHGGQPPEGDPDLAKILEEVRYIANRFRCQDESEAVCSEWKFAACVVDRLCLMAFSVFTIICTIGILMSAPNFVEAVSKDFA
assay.metric: pKi
Would you please state pKi, meaning minus log10 of the concentration in mol/L, as a bare number?

Lab note: measured pKi of c1cncc(C2CCC3CCN2CC3)c1 (stereo not shown) was 9.10
